# test.system: Interleukin-1 receptor-associated kinase 4 (Homo sapiens, UniProt Q9NWZ3)
# Sequence (Q9NWZ3 whole entry): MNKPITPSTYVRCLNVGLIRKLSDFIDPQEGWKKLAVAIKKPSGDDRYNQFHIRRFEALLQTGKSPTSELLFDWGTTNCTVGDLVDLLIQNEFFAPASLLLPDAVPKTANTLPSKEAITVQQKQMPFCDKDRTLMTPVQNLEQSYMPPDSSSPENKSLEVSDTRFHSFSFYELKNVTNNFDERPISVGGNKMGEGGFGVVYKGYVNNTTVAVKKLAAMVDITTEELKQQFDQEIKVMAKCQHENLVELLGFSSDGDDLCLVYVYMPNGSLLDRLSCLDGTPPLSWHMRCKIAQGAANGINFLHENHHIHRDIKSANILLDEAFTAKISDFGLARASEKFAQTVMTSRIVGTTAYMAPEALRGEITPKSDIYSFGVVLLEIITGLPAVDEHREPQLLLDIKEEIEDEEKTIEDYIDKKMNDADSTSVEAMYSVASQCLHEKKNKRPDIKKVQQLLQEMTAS
# method.description: Inhibition of IRAK4 (unknown origin) using FL-IPTSPITTTYFFFKKK peptide and ATP as substrate incubated for 60 mins by fluorescence based caliper assay
measured.property: IC50 (µM)
Please give a number only; it is taken to be in µM.

The compound identified as CC(C)Nc1cc(Nc2ccc3ncsc3c2)ncc1C(=O)NCCc1ccc(S(N)(=O)=O)cc1 registered its IC50 at 0.0057

For record CNC(=O)c1cnc(Nc2ccc3ncsc3c2)cc1NC(C)C the listed IC50 is 0.021

Summary for this compound, CC(C)Nc1cc(Nc2ccc3ncsc3c2)ncc1C(=O)NCCCO : IC50 is 0.024

---

# method.description: Drug uptake in LTA-treated BALB/c mouse serum at 10 mg/kg, po treated 30 mins prior to LTA-stimulation and measured after 90 mins by LC-MS analysis
# Assay type: ADME, organism-based
# conditions.used: read-out: Drug uptake
measured.property: concentration at 1.5 h (nM)
Give the number; nM is assumed, so skip it.

Looking up CC(C)(O)[C@H](F)CNC(=O)c1cnc(Nc2ccc3ncsc3c2)cc1NC1CC1 , I found its concentration at 1.5 h recorded as 410

---

# method.description: Oral bioavailability in mouse at 5 mg/kg administered via gavage measured up to 24 hrs by LC-MS analysis
# Assay type: ADME, organism-based
# conditions.used: in vivo
measured.property: bioavailability

Entry under test: CC(C)Nc1cc(Nc2nc3ccnn3cc2F)ncc1C(=O)NC[C@@H](F)C(C)(C)O . Its bioavailability was > 100%

---

# method.description: Half life in mouse at 2 mg/kg, iv administered as infusion or 10 mg/kg, po via gavage measured up to 24 hrs by LC-MS analysis
# Assay type: ADME, organism-based
# conditions.used: in vivo
measured.property: half-life

The measured half-life associated with CC(C)(O)[C@H](F)CNC(=O)c1cnc(Nc2ccc3ncsc3c2)cc1NC1CC1 reads 2.2 h

---

Quick reference for remaining at 10 min among some compounds
# method.description: Stability in mouse liver microsomes assessed as parent compound remaining measured after 10 mins
# Assay type: ADME, Microsome
# conditions.used: read-out: Stability
# number only, unit % dropped from output

Guide cases for remaining at 10 min, answers given:
CC(C)(O)CCNC(=O)c1cnc(Nc2ccc3ncsc3c2)cc1NC1CC1 99
CC(C)Nc1cc(Nc2ccc3nonc3c2)ncc1C(=O)NC[C@@H](F)C(C)(C)O 89
CC(C)Nc1cc(Nc2ccc3nsnc3c2)ncc1C(=O)NC[C@@H](F)C(C)(C)O 80
CNC(=O)c1cnc(Nc2ccc3ncsc3c2)cc1N[C@H](CO)Cc1ccccc1 29
CC(C)Nc1cc(Nc2ccn3nccc3c2)ncc1C(=O)NC[C@@H](F)C(C)(C)O 85
CC(C)Nc1cc(Nc2ccc3ncsc3c2)ncc1C(=O)NCCc1ccc(S(N)(=O)=O)cc1 38

# ---- query compound ----
Reported remaining at 10 min for CC(C)Nc1cc(Nc2ccc3ncsc3c2)ncc1C(=O)NCCCO was 87

---

# method.description: Drug uptake in imiquimod-induced C57BL/6 mouse model of psoriasis at 1 mg/kg, po dosed via gavage twice daily and measured after 8 hrs by LC-MS analysis
# Assay type: ADME, organism-based
# conditions.used: in vivo, read-out: Drug uptake
measured.property: concentration at 8 h (nM)
Only the number, expressed in nM, is required.

Noted for CC(C)Nc1cc(Nc2nc3ccnn3cc2F)ncc1C(=O)NC[C@@H](F)C(C)(C)O : its concentration at 8 h reads 12
